molecular target: human EP4 receptor (Homo sapiens, UniProt P35408); construct: expressed in transfected cells; test: Recombinant human EP4 receptor binding assay (HEK-293-EBNA stable transfectants); conditions: read-out: Binding Data (IC50 in nM) hEP4
Sequence (P35408 whole entry): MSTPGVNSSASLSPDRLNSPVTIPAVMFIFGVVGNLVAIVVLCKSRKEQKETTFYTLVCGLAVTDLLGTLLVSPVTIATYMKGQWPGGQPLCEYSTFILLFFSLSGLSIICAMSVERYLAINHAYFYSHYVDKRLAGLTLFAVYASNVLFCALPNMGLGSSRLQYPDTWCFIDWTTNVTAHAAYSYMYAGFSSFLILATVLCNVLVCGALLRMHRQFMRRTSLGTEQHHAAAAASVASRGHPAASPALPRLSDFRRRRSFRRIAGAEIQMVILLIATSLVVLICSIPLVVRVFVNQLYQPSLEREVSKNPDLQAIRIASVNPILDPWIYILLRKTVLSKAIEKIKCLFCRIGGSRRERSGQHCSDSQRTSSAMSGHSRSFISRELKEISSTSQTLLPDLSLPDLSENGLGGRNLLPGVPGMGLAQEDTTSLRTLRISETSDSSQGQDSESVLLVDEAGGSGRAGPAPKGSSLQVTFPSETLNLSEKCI
assay-endpoint: IC50 (nM)

[1] O=C(O)CCCC#CC[C@H]1C(=O)CC[C@@H](O)[C@@H]1/C=C/C(O)Cc1csc2ccccc12 (stereo partly drawn)
[2] O=C(O)CCCC#CC[C@H]1C(=O)CC[C@@H](O)[C@@H]1/C=C/C(O)CCc1ccccc1 (stereo partly drawn)
Req: So which one has the bigger IC50 here, 1 or 2 ? Give the chosen item's label as your response.
Resp: 1

###

target: human EP4 receptor (Homo sapiens, UniProt P35408); construct: expressed in transfected cells; assay: Recombinant human EP4 receptor functional assay (HEK-293-EBNA stable transfectants); assay type: cell-based; details: read-out: Functional Data (EC50 in nM) hEP4
assay-endpoint: EC50 (nM)

{"columns": ["molecule", "unit-abbrev", "EC50"],
 "data": [
  ["O=C(O)CCC/C=C\\C[C@H]1C(=O)C=CC[C@@H]1/C=C/C(O)CCc1sc2ccccc2c1Cl (stereo partly drawn)", "nM", 456],
  ["O=C(O)CCC/C=C\\C[C@@H]1[C@@H](/C=C/C(O)CCc2sc3ccccc3c2Cl)[C@H](O)CC[C@H]1Cl (stereo partly drawn)", "nM", 314],
  ["O=C(O)CCCC#CC[C@H]1C(=O)CC[C@@H](O)[C@@H]1/C=C/C(O)Cc1csc2ccccc12 (stereo partly drawn)", "nM", 362],
  ["O=C(O)CCC/C=C\\C[C@H]1C(=O)CC[C@@H](O)[C@@H]1/C=C/C(O)CCc1sc2ccccc2c1Cl (stereo partly drawn) [1 high Rf]", "nM", 136],
  ["O=C(O)CCCC#CC[C@H]1C(=O)CC[C@@H](O)[C@@H]1/C=C/C(O)CCc1ccccc1 (stereo partly drawn)", "nM", 214]
]}

[1] O=C(O)CCC/C=C\C[C@H]1C(=O)CC[C@@H](O)[C@@H]1/C=C/C(O)Cc1csc2ccccc12 (stereo partly drawn)
[2] O=C(O)CCC/C=C\C[C@H]1C(=O)CC[C@@H](O)[C@@H]1/C=C/C(O)CCc1sc2ccccc2c1Cl (stereo partly drawn) [1 low Rf]
[3] O=C(O)CCC/C=C\C[C@H]1C(=O)CC[C@@H](O)[C@@H]1/C=C/C(O)Cc1ccccc1 (stereo partly drawn)
[4] CCCCC[C@H](O)CC[C@H]1[C@H](O)CCC(=O)[C@@H]1CCCCCCC(=O)O
Req: Please put the entries in order of rising EC50. List each label, following the requested order.
Resp: 3, 2, 1, 4

###

biological target: human EP4 receptor (Homo sapiens); construct: expressed in transfected cells; test: Recombinant human EP4 receptor binding assay (HEK-293-EBNA stable transfectants); settings: read-out: Binding Data (IC50 in nM) hEP4
assay-endpoint: IC50 (nM)

{"columns": ["molecule", "IC50 (nM)"],
 "data": [
  ["O=C(O)CCC/C=C\\C[C@@H]1[C@@H](/C=C/C(O)CCc2sc3ccccc3c2Cl)[C@H](O)CC[C@H]1Cl (stereo partly shown)", 35]
]}

[1] O=C(O)CCC/C=C\C[C@H]1C(=O)CC[C@@H](O)[C@@H]1/C=C/C(O)CCc1sc2ccccc2c1Cl (stereo partly shown) [1 low Rf]
[2] O=C(O)CCC/C=C\C[C@H]1C(=O)CC[C@@H](O)[C@@H]1/C=C/C(O)Cc1ccccc1 (stereo partly shown)
Req: Which record shows the lower IC50: the first, 1 , or the second, 2 ? Give the chosen item's label as your response.
Resp: 2

[a] O=C(O)CCC/C=C\C[C@H]1C(=O)CC[C@@H](O)[C@@H]1/C=C/C(O)CCc1sc2ccccc2c1Cl (stereo partly shown) [1 high Rf]
[b] O=C(O)CCC/C=C\C[C@H]1C(=O)C=CC[C@@H]1/C=C/C(O)CCc1sc2ccccc2c1Cl (stereo partly shown)
Req: So which one has the bigger IC50 here, a or b ? Give the chosen item's label as your response.
Resp: b

[I] O=C(O)CCC/C=C\C[C@H]1C(=O)CC[C@@H](O)[C@@H]1/C=C/C(O)Cc1csc2ccccc12 (stereo partly shown)
[II] CCCCC[C@H](O)CC[C@H]1[C@H](O)CCC(=O)[C@@H]1CCCCCCC(=O)O
Req: Which record shows the lower IC50: the first, I , or the second, II ? Give the chosen item's label as your response.
Resp: II
(II: 600 nM, I: 1300 nM)
